Target: Histamine H3 receptor (Cavia porcellus) (UniProt Q9JI35)
Sequence (Q9JI35 whole entry): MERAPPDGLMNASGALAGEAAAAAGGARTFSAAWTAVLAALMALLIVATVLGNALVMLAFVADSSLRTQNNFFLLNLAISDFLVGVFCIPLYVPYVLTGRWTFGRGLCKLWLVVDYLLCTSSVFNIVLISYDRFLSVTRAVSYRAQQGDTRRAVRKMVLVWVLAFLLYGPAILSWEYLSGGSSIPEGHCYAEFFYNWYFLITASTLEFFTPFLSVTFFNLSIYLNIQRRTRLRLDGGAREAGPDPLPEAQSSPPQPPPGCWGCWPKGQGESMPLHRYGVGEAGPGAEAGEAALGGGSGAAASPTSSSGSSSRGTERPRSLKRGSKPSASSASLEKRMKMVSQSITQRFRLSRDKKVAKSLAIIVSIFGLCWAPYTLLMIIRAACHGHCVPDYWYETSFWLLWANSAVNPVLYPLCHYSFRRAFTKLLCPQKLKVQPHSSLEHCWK
Experiment: Tested for activity of compound against histamine H3 receptor in guinea pig ileum; Antagonist
Format: functional, tissue-based
Settings: filed as antagonist
reportedEndpoint: Activity

Please review the entries below; each comes with its answer.
compound	studySystem	Activity
CC(C)(C)CNC(=O)OCCCc1c[nH]cn1	Histamine H3 receptor (Cavia porcellus) (UniProt Q9JI35)	Antagonist
CC(C)CNC(=O)OCCCc1c[nH]cn1	Histamine H3 receptor (Cavia porcellus) (UniProt Q9JI35)	Antagonist
CC(C)NC(=O)OCCCc1c[nH]cn1	Histamine H3 receptor (Cavia porcellus) (UniProt Q9JI35)	Antagonist
CC(NC(=O)OCCCc1c[nH]cn1)C(C)(C)C (stereo not given)	Histamine H3 receptor (Cavia porcellus) (UniProt Q9JI35)	Antagonist

Now look at this entry.
Lookup result for "CC(C)(C)NC(=O)OCCCc1c[nH]cn1" ; measured Activity: Antagonist

All figures here come from ChEMBL document CHEMBL1149177.
